# subject.of.test: T1, human EphA2 (human, UniProt P29317 25-534, limits assumed)
# T1 construct: also called Eph receptor tyrosine kinase A2
# experiment.summary: fluorescence polarisation competition with tracer BCY90, human EphA2, mean of 6
Starred links: 1 amine or outer side, 2 acyl side, 3 side chain; linkers in the order of their positions; H or OH if unused. Positions of bridges follow the written chain, without caps; N, C: chain ends. Non-standard residues stand in square brackets, D forms with d. No end group written: not given here. TATA = O=C(CC[*:1])N1CN(C(=O)CC[*:2])CN(C(=O)CC[*:3])C1; Dip = N[C@H](C(=O)O)C(c1ccccc1)c1ccccc1; Hyp = O=C(O)[C@@H]1C[C@@H](O)CN1; hArg = N=C(N)NCCCC[C@H](N)C(=O)O; Mpa = O=C(O)CCS
attribute.measured: Ki (nM)

[Mpa][Hyp]LVNPLCL[Dip]P[dD]WTC[dK]-NH2 (linker (positions not given here) via TATA; not fully specified (bridges), Bicyclic peptide cyclised with TATA; the first reactive group is 3-mercaptopropionic acid in place of cysteine) [BCY13129]
1.88

I. C[Hyp]LVNPLCLEP[dD]WTC[dA]-NH2 (linker 1-8-15 via TATA, Bicyclic peptide cyclised with TATA) [BCY12861]
II. A[hArg]DC[Hyp]LVNPLCLQP[dD]W[hArg]C-NH2 (linker 4-11-18 via TATA, Bicyclic peptide cyclised with TATA) [BCY14048]
(Q) I need your help: which of the pair I , II has higher Ki? Please indicate the selected item by its label.
(A) I
